biological target: T1, CTNI quality control recombinant protein (PK2-CTNI-1, 170120, produced by the applicant) (human, UniProt P19429 2-210, limits assumed); assay: AMC sensor kinetics, antibody captured, cTnI analyte
T1 construct: also called cardiac troponin I
T1 sequence (P19429 2-210 limits assumed): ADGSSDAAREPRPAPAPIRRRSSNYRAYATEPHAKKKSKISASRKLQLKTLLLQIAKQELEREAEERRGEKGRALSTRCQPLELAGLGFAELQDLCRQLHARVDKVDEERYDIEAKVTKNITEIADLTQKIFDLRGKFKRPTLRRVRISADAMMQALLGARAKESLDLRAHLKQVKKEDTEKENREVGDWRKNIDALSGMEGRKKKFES
What pKd was measured for each of the following?
Convention used: pKd is expressed as -log10 of the molar concentration.

Query block: Quote pKd reported for Mutation 1-36 (antibody, V domains shown, built as for Mutation 1) VH: EVQLQQSGAELVKPGASVKLSCTASGFNLKDYYMHWMKQRTEQGLDWIGRIDPEDGETRYAPEFQGKATITADTSSNTAYLQLSTLTSEDTAVYYCARYYSSYLPFVYWGQGTLVTASA VL: DVVMTQTPLSLSVSLGDQASISCRSSQSIIYSNRHTYLHWYLQKPGQSPKLLIFQLSNRFSGVPDRFSGSGSGTDFTLKINRVEAEDLGVYFCSQSTHIPYTFGSGTKLEIKR please.
Result block: 9.09

Query block: Given Mutation 1-31 (antibody, V domains shown, built as for Mutation 1) VH: EVQLQQSGAELVKPGASVKLSCTASGFNIKDYYMHWMKQRTEQGLDWIGRIDPEDAETKYAPEFQGKATITADTSSNTAYLQLSTLTSEDTAVYYCARYYSSYVPFVYWGQGTLVTASA VL: DVVMTQTPLSLSVSLGDQASISCRSSQSILYSNRHTYLHWYLQKPGQSPKLLIFQVSNRFSGVPDRFSGSGSGTDFTLKINRVEAEDLGVYFCSQSTHIPYTFGSGTKLEIKR , respond with its pKd.
Result block: 9.10

Query block: Provide pKd value for the following binder: Mutation 1-16 (antibody, V domains shown, built as for Mutation 1) VH: EVQLQQSGAELVKPGASVKLSCTASGFNLKDYFMHWMKQRTEQGLDWIGRIDPEDAETRYAPEFQGKATITADTSSNTAYLQLSTLTSEDTAVYYCARYYSSYIPFVYWGQGTLVTASA VL: DVVMTQTPLSLSVSLGDQASISCRSSQSLLYSNRHTYLHWYLQKPGQSPKLLIFQISNRFSGVPDRFSGSGSGTDFTLKINRVEAEDLGVYFCSQSTHLPYTFGSGTKLEIKR
Result block: 9.18
